assay: Blood pharmacokinetics after oral dosing (fluorescence HPLC, noncompartmental WinNonlin model); assay type: in vivo, human; details: human, in vivo, po, 1500 mg, 1,500 mg oral over 3 d, median (range); read-out: AUCτ
Endpoint: AUC (µM·h)
Your answer should be a plain number; it is taken to be in µM·h.

Entry under test: CCN(CC)CCCC(C)Nc1ccnc2cc(Cl)ccc12 (stereo not shown) [CQ, chloroquine] . Its AUC was 636

====

experiment: Blood pharmacokinetics after oral dosing (fluorescence HPLC, noncompartmental WinNonlin model); format: in vivo, human; conditions: human, in vivo; single oral 600 mg dose (CQ base equivalent), whole blood, median (range); read-out: Cmax
Endpoint: Cmax (nM)
Your answer should be a plain number; it is taken to be in nM.

Entry under test: CCN(CC)CCCC(C)Nc1ccnc2cc(Cl)ccc12 (stereo not shown) [CQ, chloroquine] . Its Cmax was 1800

====

Assay: Blood pharmacokinetics after oral dosing (fluorescence HPLC, noncompartmental WinNonlin model)
Type: in vivo, human
Conditions: human, whole blood, po, 600 mg, after 600 mg oral dose of parent drug (CQ or AQ-13), whole blood, median (range); read-out: AUCτ of metabolite
Procedure: Study drugs were administered in the GCRC on an empty stomach between 8 and 9 AM the morning after admission (after fasting for ≥ 10 h).
Endpoint: AUC (µM·h)
Your answer should be a plain number; it is taken to be in µM·h.

>>> recorded_measurement("CCNCCCC(C)Nc1ccnc2cc(Cl)ccc12 (centres unmarked) [MDCQ, mono-desethylchloroquine]")
205

Now for another entry.
Entry under test: CCNCCCNc1ccnc2cc(Cl)ccc12 [AQ-72] . Its AUC was 211

====

assay: Blood pharmacokinetics after oral dosing (fluorescence HPLC, noncompartmental WinNonlin model); assay type: in vivo, human; settings: human, in vivo, po, 600 mg, single oral 600 mg dose, whole blood, median (range); read-out: AUCτ (total area under the curve)
Endpoint: AUC (µM·h)
Your answer should be a plain number; it is taken to be in µM·h.

Entry under test: CCN(CC)CCCC(C)Nc1ccnc2cc(Cl)ccc12 (stereo not shown) . Its AUC was 241

====

test: Blood pharmacokinetics after oral dosing (fluorescence HPLC, noncompartmental WinNonlin model); format: in vivo, human; settings: human; single oral 600 mg dose, whole blood, median (range); read-out: Tmax
Endpoint: Tmax (h)
Your answer should be a plain number; it is taken to be in h.

Entry under test: CCN(CC)CCCNc1ccnc2cc(Cl)ccc12 [AQ-13] . Its Tmax was 4

====

experiment: Blood pharmacokinetics after oral dosing (fluorescence HPLC, noncompartmental WinNonlin model); assay type: in vivo, human; conditions: human; single oral 600 mg dose, whole blood, median (range); read-out: t½ (terminal elimination half-life) (converted)
Endpoint: half-life (days)
Your answer should be a plain number; it is taken to be in days.

Entry under test: CCN(CC)CCCNc1ccnc2cc(Cl)ccc12 [AQ-13] . Its half-life was 14.3
